pEC50 by entry:
- target or test system: […]F508-CFTR (Homo sapiens, UniProt P13569, DEL508-508)
- Sequence (P13569 with tags, fused parts or gaps DEL508-508): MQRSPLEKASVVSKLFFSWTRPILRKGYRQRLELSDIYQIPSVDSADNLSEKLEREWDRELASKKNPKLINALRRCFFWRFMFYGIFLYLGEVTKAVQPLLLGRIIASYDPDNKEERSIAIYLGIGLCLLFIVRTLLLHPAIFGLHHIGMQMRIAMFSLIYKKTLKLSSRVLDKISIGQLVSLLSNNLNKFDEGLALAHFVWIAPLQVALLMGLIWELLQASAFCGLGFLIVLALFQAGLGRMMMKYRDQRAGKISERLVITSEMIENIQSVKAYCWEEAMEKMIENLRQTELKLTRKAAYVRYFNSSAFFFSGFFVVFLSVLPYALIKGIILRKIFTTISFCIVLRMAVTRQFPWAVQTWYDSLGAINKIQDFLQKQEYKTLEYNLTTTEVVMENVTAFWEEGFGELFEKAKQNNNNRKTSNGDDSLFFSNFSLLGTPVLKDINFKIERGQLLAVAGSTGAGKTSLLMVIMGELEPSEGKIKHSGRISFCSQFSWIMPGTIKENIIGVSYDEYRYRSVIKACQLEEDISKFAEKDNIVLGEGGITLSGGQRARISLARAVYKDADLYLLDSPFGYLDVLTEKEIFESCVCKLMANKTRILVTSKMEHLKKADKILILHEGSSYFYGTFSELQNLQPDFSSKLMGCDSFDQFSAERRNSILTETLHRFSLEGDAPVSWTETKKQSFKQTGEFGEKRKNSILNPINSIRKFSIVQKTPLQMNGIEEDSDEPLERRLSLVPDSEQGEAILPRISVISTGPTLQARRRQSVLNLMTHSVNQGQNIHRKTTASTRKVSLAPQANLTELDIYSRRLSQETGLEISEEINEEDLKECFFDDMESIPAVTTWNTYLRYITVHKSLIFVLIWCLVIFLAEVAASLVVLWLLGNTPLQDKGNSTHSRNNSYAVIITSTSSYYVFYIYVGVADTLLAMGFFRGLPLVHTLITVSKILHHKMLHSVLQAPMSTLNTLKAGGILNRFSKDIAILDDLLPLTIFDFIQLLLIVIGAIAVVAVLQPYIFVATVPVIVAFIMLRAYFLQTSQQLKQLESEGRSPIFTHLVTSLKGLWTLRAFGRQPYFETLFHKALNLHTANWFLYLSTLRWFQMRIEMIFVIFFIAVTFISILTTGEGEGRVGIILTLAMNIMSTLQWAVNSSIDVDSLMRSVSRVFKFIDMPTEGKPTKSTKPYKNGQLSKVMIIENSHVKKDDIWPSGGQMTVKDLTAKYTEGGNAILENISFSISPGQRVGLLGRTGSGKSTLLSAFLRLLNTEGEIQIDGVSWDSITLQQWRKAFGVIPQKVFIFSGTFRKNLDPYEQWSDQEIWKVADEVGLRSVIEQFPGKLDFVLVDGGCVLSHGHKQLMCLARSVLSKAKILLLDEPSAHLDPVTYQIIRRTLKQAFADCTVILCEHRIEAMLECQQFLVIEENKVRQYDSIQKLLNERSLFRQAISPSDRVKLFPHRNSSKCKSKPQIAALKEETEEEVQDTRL
- test details: Assay results of Table 3: ΔF508-CFTR modulation, membrane potential optical assay (assay format not stated)
- measurement conditions: potency range; NIH3T3 mouse fibroblasts stably expressing […]F508-CFTR (optical assays)
pEC50: −log10 of the molar value.

Example cases with answers are listed next.
given smiles | target or test system | pEC50
N#CC1(c2ccccc2)CCN(c2nc(C(N)=O)cc(-c3ccccc3)n2)CC1 | […]F508-CFTR (Homo sapiens, UniProt P13569, DEL508-508) | < 5.30
CCN(CC)c1nc(C(N)=O)cc(-c2cccc(C(F)(F)F)c2)n1 | […]F508-CFTR (Homo sapiens, UniProt P13569, DEL508-508) | > 6.00
CCN(Cc1ccccc1)c1nc(C(N)=O)cc(-c2ccccc2)n1 | […]F508-CFTR (Homo sapiens, UniProt P13569, DEL508-508) | > 6.00
CCN(CC)c1nc(C(N)=O)cc(-c2ccc(OC)c(OC)c2)n1 | […]F508-CFTR (Homo sapiens, UniProt P13569, DEL508-508) | > 6.00

Could you now look at the following molecule, please?
*Q* What does the data say about its pEC50? Entry: Cc1cccc(-c2cc(C(N)=O)nc(N3CCCCC3)n2)c1C
*A* 5.30 to 6.00

Cited source for all entries: patent US8822451B2
